target: Nucleoprotein (Lymphocytic choriomeningitis virus (strain Armstrong)) (UniProt P09992); assay: qHTS for Inhibitors of the Functional Ribonucleoprotein Complex (vRNP) of Lymphocytic Choriomeningitis Arenaviruses (LCMV): LCMV Primary Screen - GLuc reporter signal (AID 1347086); settings: LCMV minigenome vRNP cell assay, Gaussia luciferase reporter; series mostly up to 57.5 µM; further: nearly all actives have a fitted effect of over 70% in size
Sequence (P09992 whole entry, looked up): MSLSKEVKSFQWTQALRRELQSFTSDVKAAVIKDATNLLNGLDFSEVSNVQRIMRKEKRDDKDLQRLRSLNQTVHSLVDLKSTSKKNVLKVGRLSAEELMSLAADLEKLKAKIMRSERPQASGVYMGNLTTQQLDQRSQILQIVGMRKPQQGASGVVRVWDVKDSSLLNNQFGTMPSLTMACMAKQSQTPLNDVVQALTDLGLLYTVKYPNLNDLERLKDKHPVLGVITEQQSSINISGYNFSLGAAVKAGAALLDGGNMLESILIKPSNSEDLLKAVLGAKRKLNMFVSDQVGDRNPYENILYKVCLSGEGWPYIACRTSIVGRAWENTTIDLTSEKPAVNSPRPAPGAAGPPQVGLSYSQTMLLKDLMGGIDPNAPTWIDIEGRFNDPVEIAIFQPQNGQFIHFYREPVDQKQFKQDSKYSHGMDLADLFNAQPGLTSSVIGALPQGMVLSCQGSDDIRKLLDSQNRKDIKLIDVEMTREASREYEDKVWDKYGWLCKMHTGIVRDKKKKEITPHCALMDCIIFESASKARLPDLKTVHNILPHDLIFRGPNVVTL
Inconclusive results are not listed. Activity calls are given as the source filed them. The call rests on the fitted dose curve.
Tick one outcome: 1.0 = active, 0.0 = inactive

Worked cases, answers included:
{"Molecule": "CC(C)=CCCC(C)=CCCC(C)=CCSc1ccccc1C(=O)O", "Class Name": 1.0}
{"Molecule": "O=c1[nH]c2ccc(Cl)cc2c(N[C@@H]2CN3CCC2CC3)c1-c1nc2ccccc2[nH]1", "Class Name": 1.0}
{"Molecule": "CC1=NN=C(c2ccc(N)cc2)c2cc3c(cc2C1)OCO3", "Class Name": 0.0}

# lookup: test call for CO[C@@H]1[C@H](N(C)C(=O)c2ccccc2)C[C@H]2O[C@]1(C)n1c3ccccc3c3c4c(c5c6ccccc6n2c5c31)C(=O)NC4 0.0

Would you mind telling me which call this test gave O=S(c1cc(Cl)cc(Cl)c1O)c1cc(Cl)cc(Cl)c1O ? 0.0

Hi, sorry to bother you, what did the test record for N=C1N=C(N)c2cc3ccccc3cc21 ? 0.0

Name the outcome recorded for NC(=O)CN1CC(O)CC1=O (stereo not drawn) in the assay. 0.0

GET /call?item= CC1(C)CCC(c2ccc(Cl)cc2)=C(CN2CCN(c3ccc(C(=O)NS(=O)(=O)c4ccc(N[C@H](CCN5CCOCC5)CSc5ccccc5)c(S(=O)(=O)C(F)(F)F)c4)cc3)CC2)C1 returns the recorded outcome of this test. 0.0

Answer briefly: the call reported for O=C(Oc1ccc([N+](=O)[O-])cc1)N1CCN(Cc2cccc(Oc3ccccc3)c2)CC1 in this assay. 1.0

So what was the verdict on OC[C@H]1O[C@@H](n2cnc3c2NC=NC[C@@H]3O)C[C@H]1O in this test? 0.0

For C[C@@H](O[C@H]1OCCN(Cc2n[nH]c(=O)[nH]2)[C@@H]1c1ccc(F)cc1)c1cc(C(F)(F)F)cc(C(F)(F)F)c1 , what call appears in the results of this test? 0.0

Called result for NC(=O)c1ccc(-c2nc(-c3ccc4c(c3)OCO4)c(-c3ccccn3)[nH]2)cc1 0.0

What was the test verdict on O=C(O)c1ccccc1O ? 0.0

Recorded test call requested for CO[C@H]1CCC(O[C@H]2C[C@H]([C@]3(C)CC[C@]4(C[C@H](O)[C@@H](C)[C@@H]([C@@H](C)C=C(C)C(=O)[C@H](C)C[C@H](C)C(=O)O)O4)O3)O[C@]3(O[C@@H]([C@H]4O[C@@](O)(CO)[C@H](C)C[C@H]4C)C[C@H]3C)[C@H]2C)O[C@H]1C (stereo partly drawn) 0.0

What did this assay record as the result for COc1cc(C(O)CN)ccc1O (stereo not drawn) ? 0.0

Which outcome was assigned to O=c1[nH]nc(Sc2ncc([N+](=O)[O-])s2)n1-c1ccc2c(c1)OCCO2 in this test? 0.0

Kindly provide the recorded test outcome for the following molecule: CCN1CCN(c2cc3c(cc2F)c(=O)c(C(=O)O)cn3C2CC2)CC1 0.0

Test call for this molecule, please: CC(=Cc1csc(C)n1)[C@@H]1C[C@H]2O[C@]2(C)CCC[C@H](C)[C@@H](O)[C@@H](C)C(=O)C(C)(C)[C@@H](O)CC(=O)O1 0.0
